Origin of measurements: paper PMC9482650

molecular target: IL16_4, Q14005; test: holdup assay; design: key: below the threshold = too weak to quantify, mostly under pKd 3.1 to 4; conditions: plain residues with an end cap or a label only (N-terminal biotin on a linker: ado-ado)
Sequence (Q14005 1229-1329): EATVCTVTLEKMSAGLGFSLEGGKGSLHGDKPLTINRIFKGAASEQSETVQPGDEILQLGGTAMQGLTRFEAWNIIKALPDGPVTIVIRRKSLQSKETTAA
READOUT_NAME: pKd

[
  {
    "BINDER": "VDSTVKVWTC [TRAF7, Q6Q0C0]",
    "READOUT_NAME": "pKd",
    "VALUE": "below the threshold"
  },
  {
    "BINDER": "RHGSCVETSL [TMEM151B, Q8IW70]",
    "READOUT_NAME": "pKd",
    "VALUE": 3.61
  },
  {
    "BINDER": "YYKRPVQEWV [MMP24, Q9Y5R2]",
    "READOUT_NAME": "pKd",
    "VALUE": 3.57
  },
  {
    "BINDER": "DDEDRLVIEI [ZNF831, Q5JPB2]",
    "READOUT_NAME": "pKd",
    "VALUE": 3.77
  },
  {
    "BINDER": "GNSVLKSTQF [SLC22A12, Q96S37]",
    "READOUT_NAME": "pKd",
    "VALUE": 3.58
  },
  {
    "BINDER": "AKPSRISTVV [IQSEC2, Q5JU85]",
    "READOUT_NAME": "pKd",
    "VALUE": 3.51
  },
  {
    "BINDER": "KKAPTNEFYA [SDC4, P31431]",
    "READOUT_NAME": "pKd",
    "VALUE": "below the threshold"
  },
  {
    "BINDER": "SARSRLSSNL [HCN2, Q9UL51]",
    "READOUT_NAME": "pKd",
    "VALUE": "below the threshold"
  },
  {
    "BINDER": "PPYRHRNTVV [ERBB4, Q15303]",
    "READOUT_NAME": "pKd",
    "VALUE": "below the threshold"
  },
  {
    "BINDER": "SGSLKLMTTV [DACT1, Q9NYF0]",
    "READOUT_NAME": "pKd",
    "VALUE": "below the threshold"
  },
  {
    "BINDER": "SAKVRTVTSV [RASL11B, Q9BPW5]",
    "READOUT_NAME": "pKd",
    "VALUE": "below the threshold"
  },
  {
    "BINDER": "IPLDGETEEL [MYOZ1, Q9NP98]",
    "READOUT_NAME": "pKd",
    "VALUE": "below the threshold"
  },
  {
    "BINDER": "LPAHHNATRL [SLC34A1, Q06495;Q06495-1]",
    "READOUT_NAME": "pKd",
    "VALUE": "below the threshold"
  },
  {
    "BINDER": "NLSIEKETKL [ASNSD1, Q9NWL6]",
    "READOUT_NAME": "pKd",
    "VALUE": "below the threshold"
  },
  {
    "BINDER": "HLRARKSEWV [GJD4, Q96KN9]",
    "READOUT_NAME": "pKd",
    "VALUE": "below the threshold"
  },
  {
    "BINDER": "HSGYRLNDYV [CLDN14, O95500]",
    "READOUT_NAME": "pKd",
    "VALUE": "below the threshold"
  },
  {
    "BINDER": "VKPQVSESKL [ACOT8, O14734]",
    "READOUT_NAME": "pKd",
    "VALUE": "below the threshold"
  },
  {
    "BINDER": "LPHPHSTTRV [NLGN2, Q8NFZ4]",
    "READOUT_NAME": "pKd",
    "VALUE": 3.7
  }
]
